Measured EC90 accompanies every entry in the list below.
- Test system: Nonstructural protein 5A (Hepatitis C virus), Q5L478 [UNDEFINED MUTATION]
- ASSAY_SUMMARY: Inhibition of HCV genotype 1a NS5A L31V mutant assessed as reduction in viral RNA level by cell based real time PCR method
- CONDITION_LABEL: Hepatitis C virus subtype 1a

{"SMILES_NOTATION": "O=C([C@H]1CCCO1)N1CCC[C@H]1c1ncc(-c2ccc3c(c2)O[C@@H](c2ccccc2)n2c-3cc3cc(-c4cnc([C@@H]5CCCN5C(=O)[C@H]5CCCO5)[nH]4)ccc32)[nH]1", "EC90": "> 100 nM"}
{"SMILES_NOTATION": "COC(=O)N[C@H](C(=O)N1CCC[C@H]1c1ncc(-c2ccc3c(c2)cc2n3[C@H](c3ccccc3)Oc3cc(-c4cnc([C@@H]5CCCN5C(=O)[C@@H](NC(=O)OC)C5CCOCC5)[nH]4)ccc3-2)[nH]1)C(C)C", "EC90": "0.4 nM"}
{"SMILES_NOTATION": "COCC[C@H](NC(=O)OC)C(=O)N1CCC[C@H]1c1ncc(-c2ccc3c(c2)O[C@@H](c2ccccc2)n2c-3cc3cc(-c4cnc([C@@H]5CCCN5C(=O)[C@H](CCOC)NC(=O)OC)[nH]4)ccc32)[nH]1", "EC90": "2.1 nM"}
